- Subject Of Test: T1, recombinant human CD70 (AviTag, polyhistidine tag and chicken tenascin trimerization domain fused to the … (chicken; human, UniProt P10039 110-139, limits assumed)
- T1 construct: domain: trimerization domain; Expressed in Expi293, purified by IMAC and SEC; Copies 3 is inferred from the trimerization domain; not shown: AviTag; polyhistidine tag
- T1 sequence: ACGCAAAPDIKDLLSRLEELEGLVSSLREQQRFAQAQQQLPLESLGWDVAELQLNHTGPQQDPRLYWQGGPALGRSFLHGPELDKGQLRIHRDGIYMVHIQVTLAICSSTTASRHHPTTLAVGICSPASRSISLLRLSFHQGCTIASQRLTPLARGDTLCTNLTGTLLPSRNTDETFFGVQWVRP
- Test Description: SPR (Biacore 8K, 37 C): CD70 captured via anti-AviTag antibody on C1 chip, scFv-Fc as analyte; 1:1 Langmuir fit
Measured Parameter: t1/2 (min)
Answers are plain numbers, in min.

Field t1/2 (entry P08E02 anti-CD70 scFv-Fc fusion (Fc fusion, scFv-Fc expressed in Expi293; not shown: part of the hinge and Fc from a modified human IgG2) EVQLVQSGAEVKKPGESLKISCKGSGYSFTSSWIGWVRQMPGKGLEWMGIIYPGDSDTRYSPSFQGQVTISADKSISTAYLQWSSLKASDTAMYYCAKGLSQAMTGFGFDYWGQGTLVTVSSGGGGSGGGGSGGGGSGGGGSELDIQMTQSPSSLSASVGDRVTITCRASQSISRYLNWYQQKPGKAPKLLIYAASILQTGVPSRFSGSGSGTDFTLTISSLQPEDFATYYCQQSYSTTMWTFGQGTKVEIK ) reads 2.6
